Measured MRT last accompanies every entry in the list below.
Protocol details: Mean residence time ( 0 to t ) in Sprague-Dawley rat at 2 mg/kg, po
Assay type: ADME, organism-based
Design: dose 2 mg/kg, route oral
Cond: in vivo
Unit h implied. Number only.

[
  {
    "Compound": "CCCOC(c1ccc2ccccc2c1)C1CNC1.Cl (configuration not stated)",
    "Unit tag": "h",
    "MRT last": 2.2
  }
]

Exercise: // query MRT last value for entry Cl.c1ccc(OC(c2ccc3ccccc3c2)C2CNC2)cc1 (configuration not stated)
Solution: 2

----------
Measured inhibition at 5 min, 10 µM accompanies every entry in the list below.
Tested on: CYP3A4 (Homo sapiens)
Sequence (P08684 whole entry): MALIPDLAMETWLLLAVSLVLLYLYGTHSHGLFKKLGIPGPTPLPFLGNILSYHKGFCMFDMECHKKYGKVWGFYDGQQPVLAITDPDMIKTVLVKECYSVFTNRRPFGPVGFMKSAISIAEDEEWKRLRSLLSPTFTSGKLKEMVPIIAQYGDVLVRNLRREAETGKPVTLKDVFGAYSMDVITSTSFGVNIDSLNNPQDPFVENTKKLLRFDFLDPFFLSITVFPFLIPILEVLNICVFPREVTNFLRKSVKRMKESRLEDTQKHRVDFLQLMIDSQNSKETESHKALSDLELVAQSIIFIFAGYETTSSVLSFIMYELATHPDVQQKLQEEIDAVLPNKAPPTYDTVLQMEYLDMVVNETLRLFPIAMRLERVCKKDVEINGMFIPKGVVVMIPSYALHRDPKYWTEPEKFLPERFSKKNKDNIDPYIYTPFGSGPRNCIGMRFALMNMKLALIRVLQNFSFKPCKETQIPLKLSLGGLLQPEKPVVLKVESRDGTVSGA
Protocol details: Inhibition of human recombinant CYP3A4 at 10 uM after 5 mins by fluorescence assay
Unit % implied. Number only.

[
  {
    "Compound": "Clc1ccc(OC(c2ccc3ccccc3c2)C2CNC2)cc1Cl (configuration not stated)",
    "Tested on": "CYP3A4 (Homo sapiens)",
    "inhibition at 5 min, 10 µM (%)": 41
  }
]

// switching to the query compound
Exercise: // query inhibition at 5 min, 10 µM value for entry Cl.c1ccc(OC(c2ccc3ccccc3c2)C2CNC2)cc1 (configuration not stated)
Solution: 12

----------
Protocol details: Tmax in Sprague-Dawley rat at 2 mg/kg, po
Type: ADME, organism-based
Set-up: dose 2 mg/kg, route oral
Cond: in vivo
Measured Tmax accompanies every entry in the list below.
Unit h implied. Number only.

[
  {
    "Molecule": "Cl.c1ccc(OC(c2ccc3ccccc3c2)C2CNC2)cc1 (configuration not stated)",
    "Tmax [h]": 1.3
  }
]

Exercise: // query Tmax value for entry CCCOC(c1ccc2ccccc2c1)C1CNC1.Cl (configuration not stated)
Solution: 1

----------
Tested on: Sodium-dependent serotonin transporter (Homo sapiens)
Sequence (P31645 whole entry, looked up): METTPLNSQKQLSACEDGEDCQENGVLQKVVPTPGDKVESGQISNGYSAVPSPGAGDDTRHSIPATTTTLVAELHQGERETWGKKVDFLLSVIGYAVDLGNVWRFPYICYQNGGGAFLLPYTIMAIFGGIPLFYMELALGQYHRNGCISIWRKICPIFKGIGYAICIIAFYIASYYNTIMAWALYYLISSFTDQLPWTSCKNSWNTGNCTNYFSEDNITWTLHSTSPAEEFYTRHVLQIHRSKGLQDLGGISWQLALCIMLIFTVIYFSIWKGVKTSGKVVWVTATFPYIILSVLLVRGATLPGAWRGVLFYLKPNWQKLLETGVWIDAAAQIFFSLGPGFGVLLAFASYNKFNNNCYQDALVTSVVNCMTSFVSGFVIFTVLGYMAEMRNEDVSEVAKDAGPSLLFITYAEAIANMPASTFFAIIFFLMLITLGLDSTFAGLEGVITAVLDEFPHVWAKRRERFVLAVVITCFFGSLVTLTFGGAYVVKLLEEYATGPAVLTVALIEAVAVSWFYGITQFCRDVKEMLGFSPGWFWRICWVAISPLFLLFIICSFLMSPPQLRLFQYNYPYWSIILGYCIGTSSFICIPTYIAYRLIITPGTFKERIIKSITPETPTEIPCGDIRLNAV
Cond: HEK293, at 0.1 µM
Outcome: True for inhibition of at least 10%; False for anything lower.

[
  {
    "Compound": "Fc1cc(C(Oc2ccccc2)C2CNC2)ccc1Cl (stereo not drawn)",
    "Label": "True"
  },
  {
    "Compound": "Clc1ccc(C(OCc2ccccc2)C2CNC2)cc1Cl (stereo not drawn)",
    "Label": "True"
  },
  {
    "Compound": "c1ccc(COC(c2ccccc2)C2CNC2)cc1 (stereo not drawn)",
    "Label": "True"
  },
  {
    "Compound": "COC(c1ccccc1)C1CNC1 (stereo not drawn)",
    "Label": "False"
  },
  {
    "Compound": "Clc1ccc(C(Oc2ccccc2)C2CNC2)cc1 (stereo not drawn)",
    "Label": "True"
  }
]

Exercise: Has COC(c1ccc(Cl)c(Cl)c1)C1CNC1 (stereo not drawn) a recorded inhibition greater than or equal to 10%?
Solution: True

Exercise: Has CCOC(c1ccc(Cl)cc1)C1CNC1 (stereo not drawn) a recorded inhibition greater than or equal to 10%?
Solution: False

----------
Tested on: Sodium-dependent noradrenaline transporter (Homo sapiens)
Sequence (P23975 whole entry): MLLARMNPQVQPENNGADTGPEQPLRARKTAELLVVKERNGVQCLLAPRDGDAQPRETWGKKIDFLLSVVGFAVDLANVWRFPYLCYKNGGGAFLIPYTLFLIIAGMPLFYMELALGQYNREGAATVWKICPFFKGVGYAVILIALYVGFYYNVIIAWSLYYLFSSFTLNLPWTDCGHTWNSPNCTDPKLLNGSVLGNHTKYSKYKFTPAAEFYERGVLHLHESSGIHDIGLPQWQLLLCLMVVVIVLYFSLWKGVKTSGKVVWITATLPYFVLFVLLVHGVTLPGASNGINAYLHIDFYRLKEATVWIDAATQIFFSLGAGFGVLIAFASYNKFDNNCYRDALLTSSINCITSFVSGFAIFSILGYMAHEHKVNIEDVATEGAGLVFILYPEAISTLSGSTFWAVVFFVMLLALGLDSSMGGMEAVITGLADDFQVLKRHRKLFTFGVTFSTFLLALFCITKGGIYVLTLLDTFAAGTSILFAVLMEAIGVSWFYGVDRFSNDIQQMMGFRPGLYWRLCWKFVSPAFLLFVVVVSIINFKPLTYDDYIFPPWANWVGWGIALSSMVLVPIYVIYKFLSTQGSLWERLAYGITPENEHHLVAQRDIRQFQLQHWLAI
Cond: HEK293, at 0.1 µM
Outcome: Met for inhibition of at least 50%; Not met for anything lower.

Recorded results for 2 compounds are shown here.
[
  {
    "Compound": "Clc1ccc(OC(c2ccc3ccccc3c2)C2CNC2)cc1Cl (centres undefined)",
    "Label": "Met"
  },
  {
    "Compound": "Clc1ccc(C(Oc2ccccc2)C2CNC2)cc1 (centres undefined)",
    "Label": "Met"
  }
]

Exercise: Has Clc1ccc(C(OCc2ccccc2)C2CNC2)cc1 (centres undefined) a recorded inhibition greater than or equal to 50%?
Solution: Not met

Exercise: Has CCCOC(c1ccc(Cl)c(Cl)c1)C1CNC1 (centres undefined) a recorded inhibition greater than or equal to 50%?
Solution: Met

Exercise: Has Fc1cc(C(Oc2ccccc2F)C2CNC2)ccc1Cl (centres undefined) a recorded inhibition greater than or equal to 50%?
Solution: Met

----------
Tested on: UniProt P23975
Cond: HEK293, at 0.1 µM
Outcome: 1 for inhibition of at least 30%; 0 for anything lower.

Recorded results for 2 compounds are shown here.
[
  {
    "Compound": "CCOC(c1ccc(Cl)c(Cl)c1)C1CNC1 (centres undefined)",
    "Label": 1
  },
  {
    "Compound": "OC(c1ccccc1)C1CNC1 (centres undefined)",
    "Label": 0
  }
]

Exercise: Has CCOC(c1ccc(Cl)cc1)C1CNC1 (centres undefined) a recorded inhibition greater than or equal to 30%?
Solution: 0

Exercise: Has Cl.c1ccc(OC(c2ccc3ccccc3c2)C2CNC2)cc1 (centres undefined) a recorded inhibition greater than or equal to 30%?
Solution: 1

Exercise: Has COC(c1ccc(Cl)c(Cl)c1)C1CNC1 (centres undefined) a recorded inhibition greater than or equal to 30%?
Solution: 1

----------
Measured inhibition accompanies every entry in the list below.
Tested on: Sodium-dependent noradrenaline transporter (Homo sapiens)
Cond: HEK293, at 0.1 µM
Unit % implied. Number only.

[
  {
    "Compound": "Clc1ccc(C(OCc2ccccc2)C2CNC2)cc1Cl (centres undefined)",
    "Tested on": "Sodium-dependent noradrenaline transporter (Homo sapiens)",
    "Unit tag": "%",
    "Quantitative readout": 30
  }
]

Exercise: // query inhibition value for entry CCOC(c1ccccc1)C1CNC1 (centres undefined)
Solution: 4.5

Exercise: // query inhibition value for entry Clc1ccc(C(Oc2ccccc2)C2CNC2)cc1Cl (centres undefined)
Solution: 89

Exercise: // query inhibition value for entry OC(c1ccc(Cl)cc1)C1CNC1 (centres undefined)
Solution: 3.5
